Data provenance: patent US20200317776A1

Molecular target: T1, human TREM2 expressed on cells (human, UniProt Q9NZC2 19-230)
T1 construct: BW5147.G.1.4 cells stably expressing human TREM2 together with Dap12, or endogenous TREM2 of primary human myeloid cells; also called huT2 BW; hTREM2 expressing cell line
T1 sequence: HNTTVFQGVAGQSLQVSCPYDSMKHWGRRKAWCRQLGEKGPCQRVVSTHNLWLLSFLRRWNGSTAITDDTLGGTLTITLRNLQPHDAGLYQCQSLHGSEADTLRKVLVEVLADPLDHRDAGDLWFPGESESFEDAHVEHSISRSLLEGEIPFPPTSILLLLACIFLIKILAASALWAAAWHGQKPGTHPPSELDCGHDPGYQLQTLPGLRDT
Experiment: FACS, human DCs; also: test concentration or dose not given here
readoutLabel: MFI

| binder | MFI |
| --- | --- |
| AL2p-41 (antibody, IgG1, V domains shown, Fab and IgG formats under one id) VH: QVQLVQSGAEVKKPGSSVKVSCKASGYAFSSHWMNWVRQAPGQGLEWMGRIYPGEGDTNYAQKFRGRVTITADESTSTAYMELSSLRSEDTAVYYCARLLRNQPGASYAMDYWGQGTLVTVSS VL: GVVMTQTPLSLSVTPGQPASISCRSSRSLVHSNQYTYLHWYLQKPGQSPQLLIYKVSNRRSGVPDRFSGSGSGTDFTLKISRVEAEDVGVYYCSQSTRVPYTFGQGTKLEIK | 534 MFI |
| AL2p-15 (antibody, V domains shown, Fab and IgG formats under one id) VH: QVQLVQSGAEVKKPGSSVKVSCKASGYAFSSHWMNWVRQAPGQGLEWMGRIYPGDGDTNYAQKFQGRVTITADESTSTAYMELSSLRSEDTAVYYCARLLRNQPGESYAMDYWGQGTLVTVSS VL: GVVMTQTPLSLSVTPGQPASISCRSSSSLVHSNGYTYLHWYLQKPGQSPQLLIYKVSNRKSGVPDRFSGSGSGTDFTLKISRVEAEDVGVYYCSQSTRVPYTFGQGTKLEIK | 262 MFI |

If you can, please state the reported MFI value of AL2p-35 (antibody, V domains shown, Fab and IgG formats under one id) VH: QVQLVQSGAEVKKPGASVKVSCKASGYAFWSSWMNWVRQAPGQRLEWIGRIYPGDGDTNYAQKFQGRVTITADTSASTAYMELSSLRSEDTAVYYCARLLRNQPGESYAHDYWGQGTLVTVSS VL: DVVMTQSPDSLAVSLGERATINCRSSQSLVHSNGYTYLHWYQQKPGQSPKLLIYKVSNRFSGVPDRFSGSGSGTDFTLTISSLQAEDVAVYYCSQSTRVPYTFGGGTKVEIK .
130 MFI
